Target Desc: T1, CD32B (FcγRII-B) (UniProt P31994 43-217, limits assumed)
T1 construct: No species or construct stated
T1 sequence (looked up): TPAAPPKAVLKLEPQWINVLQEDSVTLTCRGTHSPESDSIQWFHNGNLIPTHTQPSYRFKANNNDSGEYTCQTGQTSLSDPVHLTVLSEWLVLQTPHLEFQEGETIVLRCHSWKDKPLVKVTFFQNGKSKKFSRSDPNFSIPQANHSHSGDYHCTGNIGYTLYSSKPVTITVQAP
Assay Info: Table 3; relative to wild-type Fc; method not stated
Endpoint Label: binding relative to wild-type Fc (fold)
I'd appreciate a reply containing only the number, no unit.

Guide cases for binding relative to wild-type Fc (fold), answers given:
Binder: Fc variant F243L D270E G316D R416G (other, UniProt P01857-1 99-330, looked up, name in EU numbering, domain: Fc region; positions are EU index) EPKSCDKTHTCPPCPAPELLGGPSVFLLPPKPKDTLMISRTPEVTCVVVDVSHEEPEVKFNWYVDGVEVHNAKTKPREEQYNSTYRVVSVLTVLHQDWLNDKEYKCKVSNKALPAPIEKTISKAKGQPREPQVYTLPPSRDELTKNQVSLTCLVKGFYPSDIAVEWESNGQPENNYKTTPPVLDSDGSFFLYSKLTVDKSGWQQGNVFSCSVMHEALHNHYTQKSLSLSPGK
binding relative to wild-type Fc (fold): 0.2
//
Binder: Fc variant F243L D270E K392T P396L (other, UniProt P01857-1 99-330, looked up, name in EU numbering, domain: Fc region; positions are EU index) EPKSCDKTHTCPPCPAPELLGGPSVFLLPPKPKDTLMISRTPEVTCVVVDVSHEEPEVKFNWYVDGVEVHNAKTKPREEQYNSTYRVVSVLTVLHQDWLNGKEYKCKVSNKALPAPIEKTISKAKGQPREPQVYTLPPSRDELTKNQVSLTCLVKGFYPSDIAVEWESNGQPENNYTTTPLVLDSDGSFFLYSKLTVDKSRWQQGNVFSCSVMHEALHNHYTQKSLSLSPGK
binding relative to wild-type Fc (fold): 0.44
//
Binder: Fc variant R255L D270E R292G P396L (other, UniProt P01857-1 99-330, looked up, name in EU numbering, domain: Fc region; positions are EU index) EPKSCDKTHTCPPCPAPELLGGPSVFLFPPKPKDTLMISLTPEVTCVVVDVSHEEPEVKFNWYVDGVEVHNAKTKPGEEQYNSTYRVVSVLTVLHQDWLNGKEYKCKVSNKALPAPIEKTISKAKGQPREPQVYTLPPSRDELTKNQVSLTCLVKGFYPSDIAVEWESNGQPENNYKTTPLVLDSDGSFFLYSKLTVDKSRWQQGNVFSCSVMHEALHNHYTQKSLSLSPGK
binding relative to wild-type Fc (fold): 0.65

We next turn to a different binder, shown below.
Record request: binding relative to wild-type Fc (fold) value, item Fc variant R292P V305I P396L (other, UniProt P01857-1 99-330, looked up, name in EU numbering, domain: Fc region; positions are EU index) EPKSCDKTHTCPPCPAPELLGGPSVFLFPPKPKDTLMISRTPEVTCVVVDVSHEDPEVKFNWYVDGVEVHNAKTKPPEEQYNSTYRVVSILTVLHQDWLNGKEYKCKVSNKALPAPIEKTISKAKGQPREPQVYTLPPSRDELTKNQVSLTCLVKGFYPSDIAVEWESNGQPENNYKTTPLVLDSDGSFFLYSKLTVDKSRWQQGNVFSCSVMHEALHNHYTQKSLSLSPGK 0.92
